Reference source: ChEMBL document CHEMBL1138735

Study System: UniProtKB O75582
Sequence (O75582 whole entry): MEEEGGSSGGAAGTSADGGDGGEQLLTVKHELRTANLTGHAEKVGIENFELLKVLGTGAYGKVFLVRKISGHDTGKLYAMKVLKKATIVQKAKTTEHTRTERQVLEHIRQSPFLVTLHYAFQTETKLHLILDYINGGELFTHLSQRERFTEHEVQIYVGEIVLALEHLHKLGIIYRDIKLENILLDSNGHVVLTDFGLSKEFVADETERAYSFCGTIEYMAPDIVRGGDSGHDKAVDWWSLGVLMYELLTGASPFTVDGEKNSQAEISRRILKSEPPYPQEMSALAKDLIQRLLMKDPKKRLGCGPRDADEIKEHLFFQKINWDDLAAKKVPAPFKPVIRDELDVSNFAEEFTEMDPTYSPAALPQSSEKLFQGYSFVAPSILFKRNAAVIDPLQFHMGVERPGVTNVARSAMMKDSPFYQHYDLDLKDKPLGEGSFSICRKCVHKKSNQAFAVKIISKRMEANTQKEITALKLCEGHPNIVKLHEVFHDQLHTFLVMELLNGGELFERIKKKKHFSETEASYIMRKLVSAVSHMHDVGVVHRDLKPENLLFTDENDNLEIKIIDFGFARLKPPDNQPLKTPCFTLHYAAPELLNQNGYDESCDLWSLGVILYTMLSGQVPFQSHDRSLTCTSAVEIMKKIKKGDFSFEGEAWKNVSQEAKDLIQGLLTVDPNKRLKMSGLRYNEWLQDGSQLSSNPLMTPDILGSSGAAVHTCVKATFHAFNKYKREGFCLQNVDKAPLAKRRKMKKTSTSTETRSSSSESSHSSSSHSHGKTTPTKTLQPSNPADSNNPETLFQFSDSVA
Observation Type: IC50

Identify the measured IC50 of Cc1cccc(-c2n[nH]cc2-c2ccc3ncccc3n2)n1 [GW786460X] for UniProtKB O75582.
> 16 µM

###

Study System: TGF-beta receptor type-1 (Homo sapiens, UniProt P36897)
Observation Type: IC50 (nM)
Provide only the numeric value, understood in nM.

GET /values?readout=IC50&item= Nc1nc(-c2ccc(F)cc2)c(-c2ccc3ncccc3n2)s1 [GW785804X]
40

###

Study System: MAP kinase p38 (Homo sapiens, UniProt O15264+Q15759+Q16539+P53778)
Assay Remarks: Displacement of ATP from Mitogen-activated protein kinase p38 in fluorescence polarization assay; Range is (0.242-0.545)
Observation Type: pIC50
Would you please state pIC50, meaning minus log10 of the concentration in mol/L, as a bare number?

What is its pIC50 for MAP kinase p38 (Homo sapiens, UniProt O15264+Q15759+Q16539+P53778)? Entry: Nc1nc(-c2cccc(Cl)c2)c(-c2ccc3ncccc3n2)s1 [GW780159X]
6.44

###

Study System: Proto-oncogene tyrosine-protein kinase LCK (Mus musculus, UniProt P06240)
Sequence (P06240 whole entry): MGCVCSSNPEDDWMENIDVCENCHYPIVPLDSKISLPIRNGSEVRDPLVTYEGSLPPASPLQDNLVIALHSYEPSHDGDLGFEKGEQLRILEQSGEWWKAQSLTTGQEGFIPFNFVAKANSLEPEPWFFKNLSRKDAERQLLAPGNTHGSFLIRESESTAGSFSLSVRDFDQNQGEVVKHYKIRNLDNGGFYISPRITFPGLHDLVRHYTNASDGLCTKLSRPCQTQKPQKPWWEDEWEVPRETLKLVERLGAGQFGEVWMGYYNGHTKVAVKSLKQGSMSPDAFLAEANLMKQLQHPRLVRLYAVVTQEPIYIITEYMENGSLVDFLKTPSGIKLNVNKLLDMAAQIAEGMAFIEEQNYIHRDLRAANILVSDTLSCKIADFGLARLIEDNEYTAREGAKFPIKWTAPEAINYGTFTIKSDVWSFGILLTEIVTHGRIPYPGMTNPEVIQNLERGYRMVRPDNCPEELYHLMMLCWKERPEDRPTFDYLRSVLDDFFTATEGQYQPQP
pIC50: −log10 of the molar value.
Observation Type: pIC50

So what pIC50 did Cc1cccc(-c2n[nH]cc2-c2ccc3ncccc3n2)n1 [GW786460X] get with Proto-oncogene tyrosine-protein kinase LCK (Mus musculus, UniProt P06240)?
< 4.80

###

Study System: Tyrosine-protein kinase ITK/TSK (Homo sapiens, UniProt Q08881)
Sequence (Q08881 whole entry): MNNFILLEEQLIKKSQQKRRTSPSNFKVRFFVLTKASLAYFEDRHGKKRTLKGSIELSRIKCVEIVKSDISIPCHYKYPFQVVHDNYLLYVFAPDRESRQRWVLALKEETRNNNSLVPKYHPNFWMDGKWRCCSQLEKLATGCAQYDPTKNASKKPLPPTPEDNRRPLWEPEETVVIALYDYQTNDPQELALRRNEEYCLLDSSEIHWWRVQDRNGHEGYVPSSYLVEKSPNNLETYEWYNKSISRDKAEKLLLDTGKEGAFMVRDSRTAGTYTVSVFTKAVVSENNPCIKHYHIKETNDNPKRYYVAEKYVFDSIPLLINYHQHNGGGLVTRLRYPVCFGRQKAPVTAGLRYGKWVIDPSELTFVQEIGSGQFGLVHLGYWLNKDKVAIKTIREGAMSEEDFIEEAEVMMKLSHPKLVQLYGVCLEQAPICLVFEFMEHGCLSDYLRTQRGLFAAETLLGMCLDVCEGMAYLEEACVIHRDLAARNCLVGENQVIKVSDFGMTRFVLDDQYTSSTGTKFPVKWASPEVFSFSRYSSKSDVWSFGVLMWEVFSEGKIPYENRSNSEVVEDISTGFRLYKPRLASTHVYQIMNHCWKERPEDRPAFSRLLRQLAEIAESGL
Observation Type: IC50

Fill in the recorded IC50 for this molecule, with Tyrosine-protein kinase ITK/TSK (Homo sapiens, UniProt Q08881) as test system: Cc1cccc(-c2n[nH]cc2-c2ccc3ncccc3n2)n1 [GW786460X]
> 16 µM

###

Study System: TGF-beta receptor type-1 (Homo sapiens)
Sequence (P36897 whole entry): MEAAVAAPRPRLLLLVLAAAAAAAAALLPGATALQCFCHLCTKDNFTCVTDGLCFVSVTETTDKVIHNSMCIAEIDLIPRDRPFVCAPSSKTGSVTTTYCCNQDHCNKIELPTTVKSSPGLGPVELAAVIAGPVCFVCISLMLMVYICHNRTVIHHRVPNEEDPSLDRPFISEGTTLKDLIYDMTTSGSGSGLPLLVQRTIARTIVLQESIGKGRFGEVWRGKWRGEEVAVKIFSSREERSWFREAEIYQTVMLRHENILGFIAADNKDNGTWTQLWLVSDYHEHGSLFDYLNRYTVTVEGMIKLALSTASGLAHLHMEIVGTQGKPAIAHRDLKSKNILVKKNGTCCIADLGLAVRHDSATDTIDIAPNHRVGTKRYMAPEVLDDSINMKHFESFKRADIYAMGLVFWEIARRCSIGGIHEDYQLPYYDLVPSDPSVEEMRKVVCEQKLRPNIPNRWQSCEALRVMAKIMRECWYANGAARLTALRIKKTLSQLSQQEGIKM
Assay Remarks: Binding affinity to Activin A receptor type II-like kinase (ALK5) in fluorescence polarization binding assay; Range is (1.375-9.154)
Observation Type: IC50
Reply with a number, then the unit it belongs to.

Given the compound Nc1nc(-c2ccccn2)c(-c2ccc3ccccc3n2)s1 , what is its reported IC50?
3.54 µM

###

Study System: MAP kinase p38 (Homo sapiens, UniProt O15264+Q15759+Q16539+P53778)
Assay Remarks: Displacement of ATP from Mitogen-activated protein kinase p38 in fluorescence polarization assay; Range is (0.208-1.155)
Observation Type: IC50

Look up IC50: Nc1nc(-c2ccc(F)cc2)c(-c2ccc3ncccc3n2)s1 [GW785804X]
490 nM

###

Study System: TGF-beta receptor type-1 (Homo sapiens, UniProt P36897)
Assay Remarks: Binding affinity for Activin A receptor type II-like kinase (ALK5) in fluorescence polarization binding assay
pIC50: −log10 of the molar value.
Observation Type: pIC50

Some solved cases for reference:
Cpd Smiles: Cc1ccc(-c2nc(N)sc2-c2ccnc3ccccc23)nc1
pIC50: < 5.00
--
Cpd Smiles: COc1ccccc1-c1nc(N)sc1-c1ccnc2ccccc12
pIC50: < 5.00

Data request, read-out pIC50, for CCOc1ccc2nc(-c3sc(N)nc3-c3ccccn3)ccc2n1
< 5.00

###

Study System: TGF-beta receptor type-1 (Homo sapiens)
Assay Remarks: Stimulation of Transforming growth factor beta receptor I kinase in HepG2 cells
Format: functional, cell-based
Each item that follows carries a reported pIC50.
Scale: pIC50 equals -log10([C]), with [C] in mol/L.

The cases that follow already have their pIC50 on record.
Compound: Nc1nc(-c2ccccn2)c(-c2ccc3ncccc3n2)s1 [GW693481X]
pIC50: 6.92
--
Compound: Cc1ccc2nccc(-c3sc(N)nc3-c3ccccn3)c2n1
pIC50: 6.59
--
Compound: Cc1ccnc2ccc(-c3sc(N)nc3-c3ccccn3)nc12
pIC50: 6.66
--
Compound: Nc1nc(-c2ccccc2F)c(-c2ccnc3ccccc23)s1
pIC50: 5.18
--
Compound: Nc1nc(-c2nccs2)c(-c2ccnc3ccccc23)s1
pIC50: 5.18

Please examine the following record next.
Looking for the measured pIC50 of Nc1nc(-c2cccc(Cl)c2)c(-c2ccc3ncccc3n2)s1 [GW780159X] , can you help?
8.00

###

Study System: UniProtKB P36897
Observation Type: pIC50
Schema: pIC50 number; meaning minus log10 of the concentration expressed in molar units.

Value lookup for pIC50; key = Nc1nc(-c2cccc(Cl)c2)c(-c2ccc3ncccc3n2)s1 [GW780159X]
7.70

###

Study System: TGF-beta receptor type-1 (Homo sapiens, UniProt P36897)
Assay Remarks: Binding affinity to Activin A receptor type II-like kinase (ALK5) in fluorescence polarization binding assay; Range is (0.864-3.661)
Observation Type: pIC50
The read-out pIC50 is expressed as -log10 of concentration in moles per litre.

Using the record for Nc1nc(-c2ccc(Cl)cn2)c(-c2ccnc3ccccc23)s1 , report its pIC50.
5.75

###

Study System: Mitogen-activated protein kinase 10 (Homo sapiens, UniProt P53779)
Sequence (P53779 whole entry): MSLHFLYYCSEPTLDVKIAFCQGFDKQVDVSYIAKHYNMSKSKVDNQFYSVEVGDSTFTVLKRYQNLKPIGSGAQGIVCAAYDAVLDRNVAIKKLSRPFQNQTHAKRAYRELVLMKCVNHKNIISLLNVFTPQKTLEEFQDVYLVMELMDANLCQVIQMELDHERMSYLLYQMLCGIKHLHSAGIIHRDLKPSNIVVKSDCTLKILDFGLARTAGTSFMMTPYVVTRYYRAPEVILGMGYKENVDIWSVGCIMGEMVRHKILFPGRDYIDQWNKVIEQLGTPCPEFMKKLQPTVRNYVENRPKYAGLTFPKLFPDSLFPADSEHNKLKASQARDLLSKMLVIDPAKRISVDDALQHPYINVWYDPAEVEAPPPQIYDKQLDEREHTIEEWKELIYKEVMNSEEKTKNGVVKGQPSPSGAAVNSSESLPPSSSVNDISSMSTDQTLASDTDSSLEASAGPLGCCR
Assay Remarks: Inhibition of c-Jun N-terminal kinase 3-alpha binding in HTRF assay
pIC50: −log10 of the molar value.
Observation Type: pIC50

If you can, please state the reported pIC50 value of Cc1cccc(-c2n[nH]cc2-c2ccc3ncccc3n2)n1 [GW786460X] .
< 4.80

###

Study System: TGF-beta receptor type-1 (Homo sapiens)
Sequence (P36897 whole entry): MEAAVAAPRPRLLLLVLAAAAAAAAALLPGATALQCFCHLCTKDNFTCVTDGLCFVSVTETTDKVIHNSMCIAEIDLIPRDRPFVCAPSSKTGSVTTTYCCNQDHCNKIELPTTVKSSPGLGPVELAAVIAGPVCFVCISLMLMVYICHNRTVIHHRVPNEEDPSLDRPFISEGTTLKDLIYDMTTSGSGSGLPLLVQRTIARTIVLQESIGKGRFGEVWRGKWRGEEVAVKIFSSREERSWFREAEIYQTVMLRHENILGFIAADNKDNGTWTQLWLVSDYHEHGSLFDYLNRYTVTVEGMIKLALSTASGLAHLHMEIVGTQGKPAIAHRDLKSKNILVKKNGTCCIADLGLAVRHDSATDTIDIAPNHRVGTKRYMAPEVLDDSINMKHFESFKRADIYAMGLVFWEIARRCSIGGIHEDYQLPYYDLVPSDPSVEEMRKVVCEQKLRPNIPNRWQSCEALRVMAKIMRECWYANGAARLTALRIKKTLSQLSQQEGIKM
Assay Remarks: Binding affinity to Activin A receptor type II-like kinase (ALK5) in fluorescence polarization binding assay; Range is (3.221-19.588)
Observation Type: IC50 (µM)
Only the number, expressed in µM, is required.

Value lookup for IC50; key = Nc1nc(-c2ccccn2)c(-c2ccnc3ncccc23)s1
7.94
